- Tested on: OVCAR-4
- protocol-description: NCI tumour cell line growth inhibition, 48 h
Activity calls are given as the source filed them. Cut-off read from the data, not from the text of the source: active = GI50 up to about 1.1 µM and inactive = higher.
recorded-metric: GI50

> print(dat)
                                   compound  recorded.metric               result
1  CCOC(=O)/C=C(/C(=O)OCC)n1ccc(=O)n(Cc2cn(CCCCOC(C)=O)nn2)c1=O             GI50  > 100 µM (inactive)

*Q* Would you kindly share the measured GI50 for O=C(c1cccs1)c1nccc2c1cnc1ccccc12 ?
*A* > 100 µM (inactive)

*Q* Recorded GI50 for O=C1C=C(N2CCN(c3ncccn3)CC2)C(=O)c2c(O)ccc(O)c21 , please?
*A* > 100 µM (inactive)

*Q* Data request, read-out GI50, for O=c1[nH]n(Cc2ccccc2Cl)c2ccc([N+](=O)[O-])cc12
*A* 78.9 µM (inactive)

*Q* Which value of GI50 has been reported for CC(C)CC12CC3CCC(CNC1=O)C32C (stereo not given) in the records?
*A* > 100 µM (inactive)
